Reported HRG-induced Akt activation (log2) values follow for various sequences
Tested on: MCF7
Experiment Summary: HRG-induced Akt activation (dPAkt = log2 pAkt/Akt HRG-stimulated minus log2 pAkt/Akt basal) (log2 ratio difference); higher = stronger HRG-induced Akt(T308) phosphorylation
Test Settings: miRNA mimic concentration 10 nM; time after transfection 72 h; heregulin 10 ng/ml; stimulation time 1 h
Just the number, please, no unit after it.

Sample records with HRG-induced Akt activation (log2):
Residue Sequence: CCAAUAUUACUGUGCUGCUUUA
Assayed Target: MCF7
HRG-induced Akt activation (log2): 1.45

Residue Sequence: UCCCUGUUCGGGCGCCA
Assayed Target: MCF7
HRG-induced Akt activation (log2): 1.65

Residue Sequence: UCAAGAGCAAUAACGAAAAAUGU
Assayed Target: MCF7
HRG-induced Akt activation (log2): 1.91

Residue Sequence: AUCGGGAAUGUCGUGUCCGCCC
Assayed Target: MCF7
HRG-induced Akt activation (log2): 1.6

Residue Sequence: UAAGGCACCCUUCUGAGUAGA
Assayed Target: MCF7
HRG-induced Akt activation (log2): 1.51

Problem: Identify the measured HRG-induced Akt activation (log2) of GAAGUUGUUCGUGGUGGAUUCG for MCF7.
Result: 2.11

Problem: Identify the measured HRG-induced Akt activation (log2) of ACUUAAACGUGGAUGUACUUGCU for MCF7.
Result: 1.93

Problem: Identify the measured HRG-induced Akt activation (log2) of CGGGUGGAUCACGAUGCAAUUU for MCF7.
Result: 2.37

Problem: Identify the measured HRG-induced Akt activation (log2) of UGGUGCGGAGAGGGCCCACAGUG for MCF7.
Result: 0.984

Problem: Identify the measured HRG-induced Akt activation (log2) of UAUUGCACUCGUCCCGGCCUCC for MCF7.
Result: 1.33

Problem: Identify the measured HRG-induced Akt activation (log2) of CCUCAGGGCUGUAGAACAGGGCU for MCF7.
Result: 1.49

----------
Test system: MCF7
Experiment Summary: HRG-induced Akt activation (dPAkt = log2 pAkt/Akt HRG-stimulated minus log2 pAkt/Akt basal) (log2 ratio difference); higher = stronger HRG-induced Akt(T308) phosphorylation
Test Settings: miRNA mimic concentration 10 nM; time after transfection 72 h; heregulin 10 ng/ml; stimulation time 1 h
Endpoint Label: HRG-induced Akt activation (log2)
Just the number, please, no unit after it.

Residue Sequence: AGCUUCUUUACAGUGCUGCCUUG
HRG-induced Akt activation (log2): 1.68

Residue Sequence: CUUAUGCAAGAUUCCCUUCUAC
HRG-induced Akt activation (log2): 1.85

Residue Sequence: CUACAAAGGGAAGCACUUUCUC
HRG-induced Akt activation (log2): 1.96

Residue Sequence: UAUACAAGGGCAGACUCUCUCU
HRG-induced Akt activation (log2): 1.48

Problem: Identify the measured HRG-induced Akt activation (log2) of UGGAGUCCAGGAAUCUGCAUUUU for MCF7.
Result: 0.279

Problem: Identify the measured HRG-induced Akt activation (log2) of UGGCAGGGAGGCUGGGAGGGG for MCF7.
Result: 1.63

Problem: Identify the measured HRG-induced Akt activation (log2) of CGGCUCUGGGUCUGUGGGGA for MCF7.
Result: 1.13

Problem: Identify the measured HRG-induced Akt activation (log2) of UGCCCUAAAUGCCCCUUCUGGC for MCF7.
Result: 1.36

Problem: Identify the measured HRG-induced Akt activation (log2) of AAAGUGCUUCUCUUUGGUGGGU for MCF7.
Result: 0.92

Problem: Identify the measured HRG-induced Akt activation (log2) of UCGAGGAGCUCACAGUCUAGU for MCF7.
Result: 1.71
